Tested on: LOX IMVI
assay-method-text: NCI tumour cell line growth inhibition, 48 h
Active and inactive are the calls of the source. Cut-off read from the data, not from the text of the source: active = GI50 up to about 1.1 µM and inactive = higher.
For each entry below, report its GI50 value.

Recall the recorded GI50 for CCCOC(=O)CCC(NC(=O)c1ccc(Nc2nc3ccccc3nc2-c2cccs2)cc1)C(=O)OCCC (centres undefined) with LOX IMVI and state it.
> 100 µM (inactive)

Then this compound: COc1cc(C2c3cc4c(cc3[C@@H](NCCN3CCOCC3)C3COC(=O)[C@H]23)OCO4)cc(OC)c1O (some centres undefined)
1.77 µM (inactive)

What would you report for "CCOC(=O)/C(=C/c1cccc(OC)c1)N(CC)CC" ?
> 100 µM (inactive)

And the next one, CCCCCCCCCCCCC(O)C1CCC(C(O)CCCCC(O)CCCCCC2CC(CC(C)=O)C(=O)O2)O1 (centres undefined) ?
1.4 µM (inactive)

* * *

Answer each item with its documented GI50.
Test system: LOX IMVI
assay-method-text: NCI tumour cell line growth inhibition, 48 h
Activity calls are given as the source filed them. No stated cut-off is given here; in the data, active = GI50 up to about 1.1 µM and inactive = higher.

Looking for the measured GI50 of Nc1nc2c(ncn2C2OC(CO)C(O)C2O)c(=O)o1 (centres undefined) , can you help?
> 58.2 µM (inactive)

Repeat with "COc1ccc(NC(=O)CC(=O)n2nc(C)c(/N=N/c3ccccc3C(=O)O)c2C)cc1"
> 100 µM (inactive)

Next entry: CC(C)CC(NC(=O)C(O)C(N)Cc1ccccc1)C(=O)O (centres undefined)
> 100 µM (inactive)

Also "CCN1C(=O)/C(=C2\SC(c3ccccc3)(c3ccccc3)c3ccccc32)SC1=S" , if possible.
38.6 µM (inactive)

Same lookup for COC(=O)/C(C#N)=C1\CCC(O)N1C (centres undefined) , please.
> 100 µM (inactive)

Also CCSc1ncnc2c(C3OC(CO)C(O)C3O)nsc12 (centres undefined) , if possible.
> 100 µM (inactive)

What would you report for "CN(c1nc(=[N+](C)C)ss1)C1CCCCC1" ?
> 100 µM (inactive)

Similarly, "C#CCCCC(=C)C[C@@H]1OC(=O)[C@H](C)[C@@H]1O" ?
> 100 µM (inactive)

Also need "C=CCn1c(=S)sc2c(O)ncnc21" , thanks.
> 100 µM (inactive)

Now the molecule "CCC(=O)NC(Nc1cc(C)on1)(C(F)(F)F)C(F)(F)F"
> 100 µM (inactive)

Okay, and "Cc1ccccc1N/C(N)=N/C#N" ?
> 100 µM (inactive)

// same read-out, input: "COC(=O)/C1=C/c2c([nH]c3ccccc23)/C(C(=O)OC)=C\c2c1[nH]c1ccccc21"
18.7 µM (inactive)

Now this one: CC1=C2CC(C)(C)CC(=O)C2(C)CCC1=O (centres undefined)
> 100 µM (inactive)

Would you kindly repeat that for "CCOC(=O)C1=C(Nc2ccccc2)OC/C1=N\NC(=O)Cc1ccccc1" ?
> 50 µM (inactive)

Let us now turn to "COc1nc2ncc([C@@H](O)[C@H](O)CO)nc2c(=O)[nH]1"
> 100 µM (inactive)

Also check CCCCCCCCCCCCCCCCOCC(O)CO (centres undefined)
17.8 µM (inactive)

Request: "O=C(NCCCNC(=O)c1ccc2cc(O)c(O)cc2c1)c1ccc2cc(O)c(O)cc2c1"
24.2 µM (inactive)

Field entry: CC1CCCCc2nc3c(c(=O)n21)CCCC3 (centres undefined)
> 100 µM (inactive)

Try this molecule too: O=C1N2CCc3c([nH]c4ccccc34)C23CC2CCCCC12S3 (centres undefined)
> 100 µM (inactive)

Repeat for the following molecule: COc1ccccc1C1C(C(=O)O)=C(CO)Oc2cc3c(cc21)OCO3 (centres undefined)
> 100 µM (inactive)

Could you do the same for Cc1ccccc1NC(=O)CC(=O)N1N=C(N2c3ccccc3Sc3ccccc32)CC1c1ccccc1 (centres undefined) , please?
> 100 µM (inactive)

Subsequent entry: "NCCc1nc(-c2nc(C(=O)O)cs2)cs1"
> 100 µM (inactive)

Would you mind doing CCCCCCCCCCCCC/C=C/[C@H]1[C@@H](C(=O)OC)N1[S+]([O-])c1ccc(C)cc1 (some centres undefined) as well?
> 100 µM (inactive)

What do you have for "COc1ccc2cc(-c3ccc(OC)c(OC)c3)c(=O)oc2c1" ?
> 100 µM (inactive)
